Condition Summary: in ethyl acetate, 298.15 K
Experimental Endpoint: solubility (mole fraction)

{"columns": ["Record Smiles", "Experimental Endpoint", "Recorded Value"],
 "data": [
  ["O=C(O)c1ccc(O)c(O)c1", "solubility (mole fraction)", 0.00671]
]}

====

Condition Summary: in ethanol, 313.15 K

{"columns": ["Record Smiles", "solubility (mole fraction)"],
 "data": [
  ["O=C(O)c1ccc(O)c(O)c1", 0.0847]
]}

====

Condition Summary: in ethanol, 303.15 K

{"columns": ["Record Smiles", "solubility (mole fraction)"],
 "data": [
  ["O=C(O)c1ccc(O)c(O)c1", 0.0495]
]}

====

Condition Summary: in ethanol, 308.15 K

{"columns": ["Record Smiles", "solubility (mole fraction)"],
 "data": [
  ["O=C(O)c1ccc(O)c(O)c1", 0.0665]
]}

====

Condition Summary: in ethyl acetate, 308.15 K
Experimental Endpoint: solubility (mole fraction)

{"columns": ["Record Smiles", "Recorded Value"],
 "data": [
  ["O=C(O)c1ccc(O)c(O)c1", 0.013]
]}

====

Condition Summary: in ethyl acetate, 293.15 K
Experimental Endpoint: solubility (mole fraction)

{"columns": ["Record Smiles", "Experimental Endpoint", "Recorded Value"],
 "data": [
  ["O=C(O)c1ccc(O)c(O)c1", "solubility (mole fraction)", 0.00478]
]}

====

Condition Summary: in methanol, 313.15 K

{"columns": ["Record Smiles", "solubility (mole fraction)"],
 "data": [
  ["O=C(O)c1ccc(O)c(O)c1", 0.126]
]}

====

Condition Summary: in methyl acetate, 303.15 K

{"columns": ["Record Smiles", "solubility (mole fraction)"],
 "data": [
  ["O=C(O)c1ccc(O)c(O)c1", 0.0115]
]}

====

Condition Summary: in methyl acetate, 298.15 K

{"columns": ["Record Smiles", "solubility (mole fraction)"],
 "data": [
  ["O=C(O)c1ccc(O)c(O)c1", 0.00843]
]}

====

Condition Summary: in methyl acetate, 293.15 K
Experimental Endpoint: solubility (mole fraction)

{"columns": ["Record Smiles", "Recorded Value"],
 "data": [
  ["O=C(O)c1ccc(O)c(O)c1", 0.00563]
]}

====

Condition Summary: in methyl acetate, 318.15 K

{"columns": ["Record Smiles", "solubility (mole fraction)"],
 "data": [
  ["O=C(O)c1ccc(O)c(O)c1", 0.03]
]}

====

Condition Summary: in ethanol, 318.15 K

{"columns": ["Record Smiles", "solubility (mole fraction)"],
 "data": [
  ["O=C(O)c1ccc(O)c(O)c1", 0.108]
]}
